assay remarks: MTT cell viability of MRC5 cells
Format: cell-based
cond: human, mrc5 cells, DHPG 1.250 μM alone; read-out: MTT Cell Viability (% of control)
recorded endpoint: viability at 1.25 µM (%)

{"compound": "Nc1nc2c(ncn2COC(CO)CO)c(=O)[nH]1 [DHPG, reference compound]", "unit abbrev": "%", "measured": 100}

* * *

Test system: U937 cells
assay remarks: [3H]thymidine uptake in U937 cells within 1 min
Format: cell-based, human
cond: Homo sapiens, U-937, 1 min; U937 cells, within 1 min
pIC50: −log10 of the molar value.
recorded endpoint: pIC50

{"compound": "OCCN(CCO)c1nc(N2CCCCC2)c2nc(N(CCO)CCO)nc(N3CCCCC3)c2n1 [dipyridamole, reference compound]", "subject of test": "U937 cells", "measured": "> 8.00"}

Sourced from patent US5670520A
